experiment: NCI Yeast Anticancer Drug Screen. Data for the wt2 strain (AID 169); conditions: S. cerevisiae wt2 strain growth inhibition; at 3.7 µM
Compounds without any hit were thinned out: in the full panel of roughly 79,000, 15% have a hit. Active and inactive are the calls of the source. Cut-off read from the data, not from the text of the source: active = growth inhibition above about 70%; inactive = the rest.
# output must be one of TRUE for active, FALSE for inactive

NC(=S)N/N=C\c1nccc2ccccc12	FALSE
CC(=O)OC1CCC2(C)C(=CCC3C4CCC5(OC6CC(C)CN(C(C)=O)C6C5C)C(C)=C4C(=O)C32)C1 (stereo unspecified)	FALSE
CN(C)CCOc1ccc2c(c1)C/C(=C/c1ncc([N+](=O)[O-])n1C)C2=O	FALSE
O=C1c2cc([N+](=O)[O-])ccc2-c2cccc(F)c21	FALSE

What did the test return for O=C1CSc2cc([N+](=O)[O-])ccc2N1 ? FALSE

What did the test return for CCCCCCCCCCCCCCC(C(=O)[O-])[n+]1ccccc1 (stereo unspecified) ? FALSE

What did the test return for N#CN=Nc1cc(Cl)c(N=NC#N)cc1Cl ? FALSE

What did the test return for C[CH2][Sn]([CH2]C)([O]C(=O)C(OC(C)=O)c1ccccc1)[O]C(=O)C(OC(C)=O)c1ccccc1 (stereo unspecified) ? FALSE

What did the test return for CCC(=O)c1cccc2ccccc12 ? FALSE

What did the test return for O=C(c1cc(Br)ccc1O)c1cc(Br)ccc1O ? TRUE

What did the test return for COc1ccc(/C=C/C(=O)C(C)(C)Br)cc1 ? FALSE
